# System: VDR:RXRa (NR concentration 270 nM, RXRa partner concentration 90 nM)
# experiment notes: PBM binding z-score (relative to random genomic background probes); higher = stronger binding; sequences stand for … in GC…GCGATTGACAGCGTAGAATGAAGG
reported metric: PBM binding z-score
One number for each entry.

Some solved entries appear below for comparison.
>>> print(df.to_string())
                       query_sequence    val
0  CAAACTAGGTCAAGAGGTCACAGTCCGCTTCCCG   5.92
1  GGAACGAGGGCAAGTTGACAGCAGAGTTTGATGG  0.799
2  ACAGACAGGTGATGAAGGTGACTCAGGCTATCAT  0.516

Provide reported PBM binding z-score for each item, in the same order as listed.
1. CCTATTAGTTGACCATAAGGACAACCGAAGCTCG
2. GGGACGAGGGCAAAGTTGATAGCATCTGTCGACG
3. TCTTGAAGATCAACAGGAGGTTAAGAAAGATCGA
4. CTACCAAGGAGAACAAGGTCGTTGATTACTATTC
5. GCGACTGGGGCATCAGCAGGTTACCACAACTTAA
6. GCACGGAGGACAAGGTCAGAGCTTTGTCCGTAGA

Reply |
[1.07, 1.47, 0.872, 1.56, -0.211, 1.34]

Provide reported PBM binding z-score for each item, in the same order as listed.
1. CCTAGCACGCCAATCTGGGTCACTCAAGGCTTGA
2. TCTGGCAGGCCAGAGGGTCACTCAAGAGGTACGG
3. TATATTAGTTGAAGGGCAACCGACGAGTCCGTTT
4. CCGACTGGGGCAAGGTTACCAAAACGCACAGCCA
5. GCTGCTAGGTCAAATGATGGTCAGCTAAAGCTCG
6. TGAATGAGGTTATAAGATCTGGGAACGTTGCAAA

Reply |
1: 0.379; 2: 1.5; 3: 0.939; 4: 0.129; 5: 1.96; 6: 0.768

Provide reported PBM binding z-score for each item, in the same order as listed.
1. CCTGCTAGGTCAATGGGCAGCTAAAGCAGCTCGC
2. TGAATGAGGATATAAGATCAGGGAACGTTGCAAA
3. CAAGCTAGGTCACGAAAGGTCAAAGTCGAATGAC

Reply |
1: 0.356; 2: -0.113; 3: 6.88
